assaySystem: T1, LTKTG-EGFL (human LTK amino acids 63-420) (human, UniProt P29376 63-420)
T1 construct: Fc-His6 tag removed by caspase 3; also called LTK (in BLI, SEC-MALLS and ITC)
T1 sequence: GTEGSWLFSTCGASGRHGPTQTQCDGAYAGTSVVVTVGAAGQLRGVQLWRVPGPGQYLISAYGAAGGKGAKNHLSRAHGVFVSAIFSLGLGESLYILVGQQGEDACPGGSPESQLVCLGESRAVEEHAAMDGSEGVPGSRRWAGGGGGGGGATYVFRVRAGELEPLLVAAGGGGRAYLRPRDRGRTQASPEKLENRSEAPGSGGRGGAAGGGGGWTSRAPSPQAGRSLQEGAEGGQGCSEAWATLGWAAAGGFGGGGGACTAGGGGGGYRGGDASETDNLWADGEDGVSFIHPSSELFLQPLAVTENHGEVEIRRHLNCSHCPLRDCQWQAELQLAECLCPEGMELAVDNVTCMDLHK
experimentSummary: ITC at 310 K, LTKTG-EGFL (5 µM) titrated with ALKAL1 (56 µM), one-site model
reportedEndpoint: pKd
Numbers only, as −log10 of the molar value.

State the recorded pKd for this entry: ALKAL1 (truncated, residues 57-129) (ligand, human, UniProt Q6UXT8 57-129, looked up, range 57-129; Tag-free in ITC, SEC-MALLS, crystals and Ba/F3 assays; also called ALKAL1^WT; WT ALKAL1) PSGSRSAEIFPRDSNLKDKFIKHFTGPVTFSPECSKHFHRLYYNTRECSTPAYYKRCARLLTRLAVSPLCSQT
7.26

Hey, just so you know, these numbers are from patent US20250027060A1.
